assay-target: CheWS (Treponema denticola)
Sequence (F7IUZ1 entry or part of it): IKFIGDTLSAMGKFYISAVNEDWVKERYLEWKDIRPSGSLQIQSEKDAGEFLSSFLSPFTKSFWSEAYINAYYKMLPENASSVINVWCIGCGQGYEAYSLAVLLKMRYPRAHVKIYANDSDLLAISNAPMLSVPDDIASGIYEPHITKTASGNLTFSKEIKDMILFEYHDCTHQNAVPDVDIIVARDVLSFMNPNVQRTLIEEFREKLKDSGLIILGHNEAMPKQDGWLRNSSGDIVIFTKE
measurement-notes: isothermal titration calorimetry with purified domain
Format: binding
Set-up: gene cheW-1; isolated CheRlike domain (residues 203–444)
pKd: −log10 of the molar value.
metric: pKd

Per the record, C[S+](CC[C@H](N)C(=O)[O-])C[C@H]1O[C@@H](n2cnc3c(N)ncnc32)[C@H](O)[C@@H]1O (stereo partly shown) has pKd of ~4.74
